Molecular target: rat S100B (Rattus norvegicus, UniProt P04631)
Sequence (P04631 1-92): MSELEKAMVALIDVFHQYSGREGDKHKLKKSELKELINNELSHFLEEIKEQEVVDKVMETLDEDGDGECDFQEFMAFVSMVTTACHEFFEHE
Assay: Fluorescence polarization competition assay
Format: binding
Details: calculated from FPCA IC50 with the equation of Nikolovska-Coleska et al
measurement.label: pKd
// pKd: -log10(molar conc.)

Param readout= pKd; system= rat S100B (Rattus norvegicus, UniProt P04631); entry= C[CH2][Hg][S]c1ccccc1C(=O)[O-].[Na+] ; returns value.
4.26
